Listed here: items and their measured nuclei count.
assay explanation: inhibitors of E-selectin induction by TNFa, primary screen, imaging, HUVEC, immunofluorescence, MLSMR starter and 10KST1 sets (AID 487);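 also: 100% = median nuclei count of all wells on the same plate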
applied conditions: HUVEC TNFalpha-induced E-selectin immunofluorescence imaging, at 2 µM; measured here: cell number, toxicity
observable: nuclei count (%)

>>> test_result("CCSc1nc2sc3c(c2c(=O)n1C1CCCCC1)CCN(C)C3")
101
>>> test_result("CCOc1cc(C2C3=C(CCCC3=O)N(C)C3=C2C(=O)CCC3)cc(Cl)c1O")
112
>>> test_result("CCOC(=O)CC12CN3CN(C1)CC(CC(=O)OCC)(C3)C2=O")
110
>>> test_result("CN1CC2(C)CN(C(c3ccccc3)c3ccccc3)CC(C)(C1)C2O (stereo unspecified)")
154
>>> test_result("NC(=O)c1ccccc1NC(=O)CN1CCOCC1")
105
>>> test_result("CC1(C)Oc2ccc3ccc(=O)oc3c2C(N2CCCCC2)C1O (stereo unspecified)")
104
>>> test_result("Cc1ccc(-c2csc3ncn(-n4c(C)ccc4C)c(=O)c23)o1")
66.1
>>> test_result("CCCc1nc2n[nH]c(N)c2c2c1COC(C)(C)C2")
168
>>> test_result("C=CCOc1ccc(/C(O)=C2/C(=O)C(=O)N(CCCN3CCOCC3)C2c2ccc(OC)cc2)cc1 (stereo unspecified)")
131
>>> test_result("Cn1c(=O)[nH]c(=O)c2c1nc(Br)n2CCSc1nnnn1-c1ccccc1")
177
>>> test_result("C=CCN1C(=O)CC(C(=O)NC)SC1=Nc1ccc(C(=O)OCC)cc1 (stereo unspecified)")
105

* * *

assay explanation: DUSP6 inhibitors restoring Erk phosphorylation by chemical complementation, primary imaging in DUSP6-transfected HeLa (AID 609)
applied conditions: HeLa MKP-3 transfected, phospho-Erk imaging KS statistic; measured here: cell density z-score; at 10 µM; cells stimulated with TPA for 15 min
observable: z-score

>>> test_result("Cc1nc(SCC(=O)Nc2ccc3c(c2)OCO3)c(C#N)c2c1CCCC2")
-0.268
>>> test_result("C=CCOC(=O)C1=C(C)NC(SCC(=O)Nc2ccc(C)c(Cl)c2)=C(C#N)C1c1ccco1 (stereo not given)")
0.0936
>>> test_result("COCc1[nH]nc2c1C(c1sccc1C)C(C#N)=C(N)O2 (stereo not given)")
1.09
>>> test_result("CC(C)OCCCn1c(=N)c(C(N)=S)cc2c(=O)n3ccccc3nc21")
1.16
>>> test_result("CCOC(=O)c1c(C)oc2ccc(OCC(=O)C(C)(C)C)cc12")
0.82

* * *

target desc: Voltage-gated potassium channel subunit beta-2 (Rattus norvegicus) (UniProt P62483)
Sequence (P62483 whole entry, looked up): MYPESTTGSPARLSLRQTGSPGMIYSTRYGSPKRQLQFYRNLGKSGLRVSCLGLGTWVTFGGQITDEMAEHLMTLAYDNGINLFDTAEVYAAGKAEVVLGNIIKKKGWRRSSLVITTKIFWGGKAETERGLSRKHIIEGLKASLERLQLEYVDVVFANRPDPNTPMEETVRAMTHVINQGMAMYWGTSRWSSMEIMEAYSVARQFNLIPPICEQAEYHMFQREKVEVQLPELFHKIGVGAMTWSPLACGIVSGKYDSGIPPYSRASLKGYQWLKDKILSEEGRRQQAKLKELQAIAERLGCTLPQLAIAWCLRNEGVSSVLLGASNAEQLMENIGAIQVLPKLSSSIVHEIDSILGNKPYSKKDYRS
assay explanation: KvBeta enzyme negative modulators, primary screen, biochemical, NADPH fluorescence (AID 622);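 also: slope of raw intensity against log time taken from 70 to 1610 s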
applied conditions: recombinant KvBeta, 4-cyanobenzaldehyde reduction, at 10 µM, stronger effect = higher value
observable: fluorescence slope

>>> test_result("Cc1ccc(CSC2=NCCN2C(=O)C2CC2)cc1")
-0.604
>>> test_result("COc1ccccc1NC(=O)C1=C(C)Nc2nc(CCCO)nn2C1c1cccnc1 (stereo not given)")
-0.631
>>> test_result("Cn1c(=O)[nH]c(=O)c2c1nc(N1CCN(c3cccc(Cl)c3)CC1)n2CCCc1ccccc1")
-0.442
>>> test_result("CC1CCN(S(=O)(=O)c2cccc(C(=O)Nc3ccccn3)c2)CC1")
-0.338
>>> test_result("COc1ccc(C(=O)NCCc2nnc(SCc3nc4ccccc4c(=O)[nH]3)n2C)cc1")
-0.501

Every entry's value here was drawn from PubChem BioAssay.
